MEASURED_ON: Type-1 angiotensin II receptor A (Rattus norvegicus)
Sequence (whole entry): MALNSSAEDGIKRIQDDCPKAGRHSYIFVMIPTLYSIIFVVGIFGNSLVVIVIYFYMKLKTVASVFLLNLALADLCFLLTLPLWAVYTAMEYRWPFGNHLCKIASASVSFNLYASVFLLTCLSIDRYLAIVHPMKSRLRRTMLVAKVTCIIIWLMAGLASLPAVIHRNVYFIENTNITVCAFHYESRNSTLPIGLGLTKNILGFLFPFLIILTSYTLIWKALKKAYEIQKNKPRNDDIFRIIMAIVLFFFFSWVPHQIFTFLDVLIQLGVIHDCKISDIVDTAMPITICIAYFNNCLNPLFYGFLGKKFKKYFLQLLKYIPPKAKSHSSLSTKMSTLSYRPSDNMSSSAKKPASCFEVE
TEST_DETAILS: Antagonist activity at AT1 receptor in rat aorta
Type: functional, tissue-based
REPORTED_ENDPOINT: pA10

Input: Item CCCCc1nc2cc(NC(=O)c3ccccc3Cl)ccc2n1Cc1ccc(-c2ccccc2C(=O)O)cc1 has what recorded pA10?
Output: 5.8

Input: Item CCCCc1nc(Cl)c(CO)n1Cc1ccc(-c2ccccc2-c2nnn[nH]2)cc1 [LOSARTAN] has what recorded pA10?
Output: 6.5

a. CCCCc1nc2cc(NC(=O)c3ccccc3)ccc2n1Cc1ccc(-c2ccccc2C(=O)O)cc1
b. CCCCC(=O)Nc1ccc2c(c1)nc(CCCC)n2Cc1ccc(-c2ccccc2C(=O)O)cc1
Input: Lab note: check whether a or b has the lower measured pA10. Answer = label.
Output: b
(b: 3.7, a: 6)

###

MEASURED_ON: Type-1 angiotensin II receptor A (Rattus norvegicus, UniProt P25095)
Sequence (P25095 whole entry): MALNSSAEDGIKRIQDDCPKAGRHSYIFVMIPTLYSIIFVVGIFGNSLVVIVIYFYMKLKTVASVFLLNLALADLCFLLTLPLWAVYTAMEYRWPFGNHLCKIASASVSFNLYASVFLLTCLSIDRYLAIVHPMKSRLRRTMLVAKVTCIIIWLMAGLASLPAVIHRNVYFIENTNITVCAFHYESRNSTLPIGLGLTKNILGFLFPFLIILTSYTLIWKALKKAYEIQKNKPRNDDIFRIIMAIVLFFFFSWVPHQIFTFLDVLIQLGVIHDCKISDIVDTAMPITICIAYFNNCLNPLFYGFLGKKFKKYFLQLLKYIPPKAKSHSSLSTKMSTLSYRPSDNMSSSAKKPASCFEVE
TEST_DETAILS: Antagonist activity at AT1 receptor in rat aorta
Assay type: functional, tissue-based
EXPERIMENTAL_SETUP: read-out: pA2 (converted)
REPORTED_ENDPOINT: Kb (nM)

The cases that follow already have their Kb on record.
Input: Item CCCCc1nc2cc(NC(=O)CCC)ccc2n1Cc1ccc(-c2ccccc2C(=O)O)cc1 has what recorded Kb?
Output: 79.4

Input: Item CCCCc1nc2cc(NC(=O)c3ccccc3Cl)ccc2n1Cc1ccc(-c2ccccc2C(=O)O)cc1 has what recorded Kb?
Output: 316

a. CCCCc1nc2cc(NC(=O)c3ccccc3)ccc2n1Cc1ccc(-c2ccccc2C(=O)O)cc1
b. CCCCc1nc2cc(NC(=O)c3ccc(Cl)cc3)ccc2n1Cc1ccc(-c2ccccc2C(=O)O)cc1
Input: Between the two listed entries a and b , which has its Kb at the higher number? Answer = label.
Output: b
(b: 631 nM, a: 251 nM)

a. CCCCC(=O)Nc1ccc2c(c1)nc(CCCC)n2Cc1ccc(-c2ccccc2C(=O)O)cc1
b. CCCCc1nc2cc(NC(=O)CC)ccc2n1Cc1ccc(-c2ccccc2C(=O)O)cc1
c. CCCCc1nc2cc(NC(C)=O)ccc2n1Cc1ccc(-c2ccccc2C(=O)O)cc1
Input: List from greatest to least Kb. A complete answer lists every label in the requested sequence.
Output: a, b, c

A. CCCCc1nc2cc(N)ccc2n1Cc1ccc(-c2ccccc2C(=O)O)cc1
B. CCOc1nc2cccc(C(=O)O)c2n1Cc1ccc(-c2ccccc2-c2nnn[nH]2)cc1
Input: Lab note: check whether A or B has the lower measured Kb. Answer = label.
Output: B
